# maps each entry to its half-life
conditions: rat; liver microsomes; pH 7.4; 15.0 min; 1.0 µM

CS(=O)(=O)Nc1cccc(-c2nccc(-n3ccnc3)n2)c1 :: > 30 min

Short answer for "Cc1csc2c1c(=O)n(O)c(=O)n2Cc1ccccc1" : half-life was > 30 min

Reported half-life of CC(C)(C)C1CCc2c(sc(NC(=O)c3ccncc3)c2C(N)=O)C1 (stereo not drawn) : > 30 min

* * *

Entries and their half-life
conditions: rat; liver microsomes; pH 7.4; 15.0 min; 1.0 µM

Past entries and their recorded results:
CNC(=O)c1ccc(-c2cnc3cnc(C(=O)N(C)c4ccc(Cl)cc4)cn23)cc1 :: > 30 min
COc1oc(-c2cccc3ccccc23)nc1C(=O)O :: > 30 min

Note: attention shifts to another entry.
Looking up "O=C(Cc1ccc(Cl)c(Cl)c1)Nc1ccc(S(=O)(=O)Nc2ccon2)cc1" , I found its half-life recorded as > 30 min

* * *

conditions: rat; liver microsomes; pH 7.4; 15.0 min; 1.0 µM
Overview of reported log10(half-life) across a group of molecules:
Please note: log10 values; quantity half-life; unit min.

COc1ccc(OC)c(-c2nnc3n2N=C(c2c(OC)cccc2OC)CS3)c1 :: 0.15
COc1cccc(NS(=O)(=O)c2ccc(NCc3cccc(OC)c3O)cc2)c1 :: 0.60
O=C1NCc2ccc(-c3cc4c(ccn4Cc4cccnc4)c(C4=CCOCC4)n3)cc21 :: 1.29
c1ccc(Nc2cc3c(cn2)CN(Cc2ccsc2)CCN3)cc1 :: 0.24
CCc1ccc(NC(=O)c2[nH]c(C)c(C(C)=O)c2C)cc1[S+](=O)([O-])N1CCCCCC1 :: 0.32

response.value for "CCN(CC)c1ccc(Nc2nc(Cl)ncc2Br)cc1" (field: log10(half-life)) = 0.80

Query "COc1ncccc1-c1cc2c(ccn2CC2CCN([S+](C)(=O)[O-])CC2)c(N2CCOCC2)n1" yields log10(half-life) of 1.14

Recorded log10(half-life) (molecule "Fc1ccc(Nc2ccnc(-c3ccncc3)n2)cc1F" ): 1.11

So, "COc1cccc(C(=O)Nc2ccc3oc(-c4ccc5ccccc5c4)nc3c2)c1" ? Its log10(half-life) was 1.45

Lookup result for "Fc1ccc(-c2ccc(Nc3nc(-c4ccncc4)nc4ccccc34)cc2F)c(F)c1" ; measured log10(half-life): 1.36

Entry "CC1CCN(S(=O)(=O)c2ccc3c(ccc(=O)n3CC(=O)NCc3ccc(Cl)cc3)c2)CC1" — recorded log10(half-life) = 0.16

Consider COc1ccc(NC2CCCN(C(=O)CCc3ccccc3F)C2)cc1 (configuration not stated) . Its measured log10(half-life) is 0.37

get_value(item= "Cc1ccc(O)c(-c2cc(-c3ccccc3C)[nH]n2)c1" , readout=log10(half-life)) returns 1.39

log10(half-life) reported for this molecule COc1ccc(NC(=O)C2=C(C)NC(Nc3nc4ccccc4o3)=NC2c2ccccc2Br)cc1 (configuration not stated) : 1.32

Looking up "O=c1cc(CSc2ccc(Cl)cc2)nc(-c2ccccn2)[nH]1" , I see its log10(half-life) listed as 0.18

Lab book: log10(half-life) of "CN(Cc1ccccc1)C(=O)C1CCN(Cc2cccc3ccccc23)CC1" noted as 0.38

The reported log10(half-life) of the molecule "O=C1Nc2ccccc2/C1=C\c1ccc(O)c(Cl)c1" was 1.20

For record "C=CCON=C(C[C@H]1O[C@@H]2O[C@]3(C)CC[C@@H]4[C@H](C)CC[C@@H]([C@H]1C)[C@@]24OO3)[C@H]1O[C@@H]2O[C@]3(C)CC[C@H]4[C@H](C)CC[C@@H]([C@@H]1C)[C@@]24OO3" the listed log10(half-life) is 0.45

The recorded log10(half-life) for "O=C(Nc1ncnc2sc3c(c12)CCCCC3)c1ccco1" is 0.36

Reported log10(half-life) for "O=S(=O)(c1ccccc1)c1nc(-c2ccc(F)cc2)oc1N1CCCCCC1" was 0.29

Entry "CCn1cc(C(=O)N2CCN(c3cccc(Cl)c3)CC2)c2cc(OC)c(OC)cc2c1=O" ; log10(half-life) = 0.85

Reported log10(half-life) ( CC(C)(C)C1CCc2[nH]c3ccccc3c(=O)c2C1 (configuration not stated) ) = 1.27

Values compiled from PubChem BioAssay AID1508591.
